Quick list: inhibition per entry.
# Target Entity: Serine/threonine-protein kinase SIK2 (Homo sapiens) (UniProt Q9H0K1)
# Sequence (Q9H0K1 whole entry, looked up): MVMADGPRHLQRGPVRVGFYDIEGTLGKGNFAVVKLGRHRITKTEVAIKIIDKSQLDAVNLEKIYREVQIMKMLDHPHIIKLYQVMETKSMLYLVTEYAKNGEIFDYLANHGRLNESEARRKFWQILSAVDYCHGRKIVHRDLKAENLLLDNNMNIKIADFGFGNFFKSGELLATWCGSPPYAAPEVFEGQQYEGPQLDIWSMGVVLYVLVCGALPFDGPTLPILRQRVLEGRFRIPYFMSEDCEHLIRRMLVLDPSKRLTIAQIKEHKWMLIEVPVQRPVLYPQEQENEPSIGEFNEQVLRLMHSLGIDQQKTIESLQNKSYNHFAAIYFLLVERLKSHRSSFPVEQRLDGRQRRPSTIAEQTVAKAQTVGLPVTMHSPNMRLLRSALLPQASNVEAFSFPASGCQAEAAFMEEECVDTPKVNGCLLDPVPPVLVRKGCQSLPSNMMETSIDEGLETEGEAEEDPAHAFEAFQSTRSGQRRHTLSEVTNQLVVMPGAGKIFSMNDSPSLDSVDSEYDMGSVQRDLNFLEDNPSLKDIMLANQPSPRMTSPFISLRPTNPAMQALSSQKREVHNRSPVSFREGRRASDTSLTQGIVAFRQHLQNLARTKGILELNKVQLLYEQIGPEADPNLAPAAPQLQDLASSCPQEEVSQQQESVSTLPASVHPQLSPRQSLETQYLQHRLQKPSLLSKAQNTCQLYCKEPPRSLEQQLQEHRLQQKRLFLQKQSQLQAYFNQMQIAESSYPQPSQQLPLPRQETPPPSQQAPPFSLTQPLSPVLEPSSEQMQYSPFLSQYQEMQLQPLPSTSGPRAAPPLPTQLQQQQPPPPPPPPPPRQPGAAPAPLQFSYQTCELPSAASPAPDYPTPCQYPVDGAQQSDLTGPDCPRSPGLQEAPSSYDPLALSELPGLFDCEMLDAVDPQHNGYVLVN
# Run Parameters: at 0.1 µM
# Description: GSK_PKIS: SNF1LK2 (QIK) mean inhibition at 0.1 uM [Nanosyn]

{"Structure Smiles String": "COc1cc(N2CCN(C(C)C)CC2)ccc1Nc1nc(Nc2cccc(F)c2C(=O)O)c2cc[nH]c2n1", "Target Entity": "Serine/threonine-protein kinase SIK2 (Homo sapiens) (UniProt Q9H0K1)", "Scale Unit": "%", "inhibition": 5.27}
{"Structure Smiles String": "O=C1Nc2ccccc2/C1=C1\\CCc2cc(O)ccc21", "Target Entity": "Serine/threonine-protein kinase SIK2 (Homo sapiens) (UniProt Q9H0K1)", "Scale Unit": "%", "inhibition": 5.12}
{"Structure Smiles String": "Cc1ccc(-c2cc3c(NC(=O)C4CC4)ncnc3o2)cc1", "Target Entity": "Serine/threonine-protein kinase SIK2 (Homo sapiens) (UniProt Q9H0K1)", "Scale Unit": "%", "inhibition": -1.22}
{"Structure Smiles String": "CS(=O)(=O)CCNCc1ccc(-c2ccc3ncnc(Nc4ccc(OCc5ccccc5)cc4)c3c2)o1", "Target Entity": "Serine/threonine-protein kinase SIK2 (Homo sapiens) (UniProt Q9H0K1)", "Scale Unit": "%", "inhibition": 3.65}
{"Structure Smiles String": "CCS(=O)(=O)c1ccc(OC)c(Nc2ncc(-c3cccc(C(C)=O)c3)o2)c1", "Target Entity": "Serine/threonine-protein kinase SIK2 (Homo sapiens) (UniProt Q9H0K1)", "Scale Unit": "%", "inhibition": 3.14}
{"Structure Smiles String": "CC1(C)CC(n2cnc(-c3ccc(F)cc3)c2-c2ccnc(N)n2)CC(C)(C)N1", "Target Entity": "Serine/threonine-protein kinase SIK2 (Homo sapiens) (UniProt Q9H0K1)", "Scale Unit": "%", "inhibition": 1.72}
{"Structure Smiles String": "CN(C)CCNC(=O)Nc1ccc(N(C)c2ccnc(Nc3ccc(CS(C)(=O)=O)cc3)n2)cc1", "Target Entity": "Serine/threonine-protein kinase SIK2 (Homo sapiens) (UniProt Q9H0K1)", "Scale Unit": "%", "inhibition": 8.68}
{"Structure Smiles String": "CCCNc1cccc(-n2ncc3c(N/N=C/c4ccncc4)ncnc32)c1", "Target Entity": "Serine/threonine-protein kinase SIK2 (Homo sapiens) (UniProt Q9H0K1)", "Scale Unit": "%", "inhibition": -0.68}
{"Structure Smiles String": "CNC(=O)c1sc(-n2cnc3cc(OC)c(OC)cc32)cc1OCc1ccccc1C(F)(F)F", "Target Entity": "Serine/threonine-protein kinase SIK2 (Homo sapiens) (UniProt Q9H0K1)", "Scale Unit": "%", "inhibition": 7.24}
{"Structure Smiles String": "COc1ccccc1-c1cc(/C=C2\\C(=O)Nc3ncc(Br)cc32)cc(Br)c1O", "Target Entity": "Serine/threonine-protein kinase SIK2 (Homo sapiens) (UniProt Q9H0K1)", "Scale Unit": "%", "inhibition": 0.5}
